Where these numbers come from: PubChem BioAssay AID1963837

Reported viability, T/C values for the following molecules.
Tested on: 843126-344-R-J1-PDC complex spheroid viability
Assay: Anticancer human tumor 843126-344-R-J1-PDC patient-derived melanoma cell line growth inhibition [POLQ]
Conditions: second compound 0.316 µM; first compound 3.16 µM; hits give low values
The answer is to be given in %; state only the numeric part.

Example entries begin here.
molecule="CC1COCCN1c1cc(C2(S(C)(=N)=O)CC2)nc(-c2ccnc3[nH]ccc23)n1 (stereo not drawn) + COC1C(OC(N)=O)C(O)C(Oc2ccc3c(O)c(NC(=O)c4ccc(O)c(CC=C(C)C)c4)c(=O)oc3c2C)OC1(C)C" reported_measurement=56.9
molecule="O=c1[nH]cc(F)c(=O)[nH]1 + Nc1ccc(C#CCN(C(=O)Cc2ncc(C(F)(F)F)cc2C(F)(F)F)c2ccc(F)cc2)nn1" reported_measurement=111
molecule="CCc1cc2c(N3CCc4c(cc(Cn5ccnc5)cc4-c4cn(C)nc4C(F)(F)F)C3=O)cc(C)nc2c(OC)n1 + Cc1cccc(N(C)C(=O)C2C(O)CCN2c2nc(C)cc(C(F)(F)F)c2C#N)c1" reported_measurement=69.8

## Input // lookup viability, T/C for COc1ccc([C@@H](O)c2cc(-c3ncnc4cc(N5CCOCC5)ccc34)c(F)cc2Cl)nn1 + COC1C(OC(N)=O)C(O)C(Oc2ccc3c(O)c(NC(=O)c4ccc(O)c(CC=C(C)C)c4)c(=O)oc3c2C)OC1(C)C
## Output 63

## Input Now the same for O=C(c1cc(Cc2n[nH]c(=O)c3ccccc23)ccc1F)N1CCN(C(=O)C2CC2)CC1 + Cc1cccc(N(C)C(=O)C2C(O)CCN2c2nc(C)cc(C(F)(F)F)c2C#N)c1
## Output 82

## Input Can you check CCc1cc2c(N3CCc4c(cc(Cn5ccnc5)cc4-c4cn(C)nc4C(F)(F)F)C3=O)cc(C)nc2c(OC)n1 + COC1C(OC(N)=O)C(O)C(Oc2ccc3c(O)c(NC(=O)c4ccc(O)c(CC=C(C)C)c4)c(=O)oc3c2C)OC1(C)C next?
## Output 74.2

## Input How about this molecule: CC1COCCN1c1cc(C2(S(C)(=N)=O)CC2)nc(-c2ccnc3[nH]ccc23)n1 (stereo not drawn) + Cc1cccc(N(C)C(=O)C2C(O)CCN2c2nc(C)cc(C(F)(F)F)c2C#N)c1
## Output 66.6

## Input Ok, now CC1COCCN1c1cc(C2(O)CC3CCC(C2)O3)c2cnn(-c3ccn[nH]3)c2n1 (stereo not drawn) + Nc1ccc(C#CCN(C(=O)Cc2ncc(C(F)(F)F)cc2C(F)(F)F)c2ccc(F)cc2)nn1
## Output 28

###

System: 843126-344-R-J1-PDC complex spheroid viability
Assay: Anticancer human tumor 843126-344-R-J1-PDC cell line growth inhibition [POLQ];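 also: spheroids exposed to drugs for seven days before readout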
Details: second compound 1 µM; first compound 0.00316 µM; hits give low values
Experimental: Multicellular complex tumor spheroid response to Polymerase (POL) inhibitors (novobiocin, ART-558, RP6685) in combination with a variety of drugs and investigational agents in selected tumor cell lines The POL inhibitors (novobiocin, ART-558, and RP6685) were evaluated both individually and in combination with standard of care and investigational anticancer small molecules within a complex spheroid model of solid tumors. . […]
endpoint-label: viability, T/C

Use the examples below as a reference point.
compound="CC[C@@]1(O)C(=O)OCc2c1cc1n(c2=O)Cc2cc3c(CN(C)C)c(O)ccc3nc2-1 + Cc1cccc(N(C)C(=O)C2C(O)CCN2c2nc(C)cc(C(F)(F)F)c2C#N)c1" reported_measurement=89.3%
compound="Cn1ncnc1[C@H]1c2n[nH]c(=O)c3cc(F)cc(c23)N[C@@H]1c1ccc(F)cc1 + Nc1ccc(C#CCN(C(=O)Cc2ncc(C(F)(F)F)cc2C(F)(F)F)c2ccc(F)cc2)nn1" reported_measurement=87.9%
compound="COc1cccc(OCCCN)c1-c1cc(Nc2cnc(C#N)cn2)n[nH]1 + Nc1ccc(C#CCN(C(=O)Cc2ncc(C(F)(F)F)cc2C(F)(F)F)c2ccc(F)cc2)nn1" reported_measurement=89.8%

## Input Give the measured viability, T/C of Cn1ncnc1[C@H]1c2n[nH]c(=O)c3cc(F)cc(c23)N[C@@H]1c1ccc(F)cc1 + Cc1cccc(N(C)C(=O)C2C(O)CCN2c2nc(C)cc(C(F)(F)F)c2C#N)c1 .
## Output 92.6%
